- Test system: MOLT-4
- assayName: NCI tumour cell line growth inhibition, 48 h
The campaign covered roughly 57,000 sequences. About 4,900 (8.6%) were called active. The sample holds actives, similar sequences and a random draw of the others, so the mix is not that of the screen. Entries with a potency or affinity are not part of this list.
Please provide measured GI50 for the entries that follow.
Please respond with the number in nM and leave the unit unwritten.

Give the reported value of GI50 for this record: [Bis(aminomethyl)pentamethylenesilane]tetrachloropaltinum(IV), CHEMBL2146204
505

Give the reported value of GI50 for this record: cis-Bis[[(trimethylsilyl)methyl]amino]tetrachloroplatinum(IV), CHEMBL2146191
2000

Give the reported value of GI50 for this record: [Bis(aminomethyl)dimethylsilane]dichloroplatinum (II), CHEMBL2146201
5000

Give the reported value of GI50 for this record: [Bis(aminomethyl)diethylsilane]tetrachloroplatinum(IV), CHEMBL2146203
561

Give the reported value of GI50 for this record: mu-(1,7-nanodiamine-N,N')bis-(cis-aminedichloroplatimum (II)), CHEMBL2146215
592

Give the reported value of GI50 for this record: CISPLATIN, CHEMBL11359
1430

Give the reported value of GI50 for this record: [Bis(aminomethyl)pentamethylenesilane]dichloropaltinum(II), CHEMBL2146202
325
